# assay-text: qHTS assay to identify small molecule antagonists of the estrogen receptor alpha (ER-alpha) signaling pathway using the BG1 cell line in the presence of 0.1 nM 17-beta-estradiol - cell viability counter screen (AID 1259241); note: nearly all actives have a fitted effect of over 40% in size; note: potency is the fitted concentration of half-maximal effect
# measurement-conditions: VM7Luc4E2 (BG1) viability, CellTiter-Fluor protease, 22 h, 0.1 nM estradiol agonist added; series mostly up to 92.4 µM
Records with an inconclusive call do not appear. The source made the active and inactive calls. Calls come from the whole dose curve; as a rule, active = well fitted cell-killing curve with a large enough effect in the repeat runs; inconclusive = weak or mixed curves, or effect the other way; inactive = flat fitted curve, though single readings scatter.

compound | Potency
CCCN(CCC)C(=O)C(CCC(=O)O)NC(=O)c1ccccc1 (centres undefined) | inactive
CC(=O)O[C@H]1CC[C@@]2(C)C(=CC[C@@H]3[C@@H]2CC[C@]2(C)C(C(C)=O)=CC[C@@H]32)C1 | inactive
CN(CCCN1c2ccccc2CCc2ccccc21)CC(=O)c1ccc(Cl)cc1 | inactive
CC(=O)N(CC(O)CN(C(C)=O)c1c(I)c(C(=O)NCC(O)CO)c(I)c(C(=O)NCC(O)CO)c1I)c1c(I)c(C(=O)NCC(O)CO)c(I)c(C(=O)NCC(O)CO)c1I (centres undefined) | inactive
c1ccc(CN(CC2=NCCN2)c2ccccc2)cc1 | inactive
O=C(Cl)c1cccc([N+](=O)[O-])c1 | inactive
CN1CCC[C@@H]1Cc1c[nH]c2ccc(CCS(=O)(=O)c3ccccc3)cc12 | inactive
CCOC(=O)C(Br)c1ccccc1 (centres undefined) | inactive
COc1cc(N)c(Cl)cc1C(=O)NC1CCN(Cc2ccccc2)CC1 | inactive
CCCCCCCCCCCCCCCCOP(=O)([O-])OCC[N+](C)(C)C | inactive
Cc1ccsc1C(=CCCN1CCC[C@@H](C(=O)O)C1)c1sccc1C | inactive
Cc1cc2c(s1)Nc1ccccc1N=C2N1CCN(C)CC1 | 13.3 µM (active)
CC(C)CCCCCCc1ccc(OCCOCCO)cc1 | inactive
Cc1ccc(C)c(N)c1 | inactive
C=CCCC=C | inactive
CC/C=C\CCOC(=O)CCCCC | inactive
CCN(CCCc1ccccc1)CCCc1ccccc1 | inactive
CC(=O)OC1C2(C)CCC(C2)C1(C)C (centres undefined) | inactive
O=c1[nH]cnc2c1ncn2[C@@H]1O[C@H](CO)[C@@H](O)[C@H]1O | inactive
CCOc1ccc(NS(=O)(=O)c2ccc(N)cc2)nn1 | inactive
O=C1Nc2ccc([N+](=O)[O-])cc2C1=O | inactive
Cc1ccccc1C(=O)Nc1ccc(C(=O)N2CCCC(O)c3cc(Cl)ccc32)c(C)c1 (centres undefined) | inactive
FC(F)(F)c1ccccc1 | inactive
CCCCc1ccc2nc(NC(=O)OC)[nH]c2c1 | inactive

====

# assay-text: qHTS RealTime-Glo MT Cell Viability Assay in HEK293 cells - 40 hour (AID 1224874); note: % is set by controls: 0 for no effect and ±100 for the full control effect; nearly all actives have a fitted effect of over 50% in size
# measurement-conditions: RealTime-Glo luminescence; hits give low values
Records with an inconclusive call do not appear. Calls of active or inactive are those of the source. Calls come from the whole dose curve; as a rule, active = well fitted cell-killing curve with a large enough effect in the repeat runs; inconclusive = weak or mixed curves, or effect the other way; inactive = flat fitted curve, though single readings scatter.

molecule | max response
CC(C)c1ccccc1 | 1.09% (inactive)
Cc1ccc([N+](=O)[O-])c(N)c1 | -1.42% (inactive)
CCC1(C)NC(=O)NC1=O (centres undefined) | -2.11% (inactive)
COC(=O)C(C)O (centres undefined) | 3.12% (inactive)
CCc1cc(Cl)c(OC)c(C(=O)NC[C@@H]2CCCN2CC)c1O | -13.1% (inactive)
CCN[C@H]1CN(CCCOC)S(=O)(=O)c2sc(S(N)(=O)=O)cc21 | -0.402% (inactive)
CCN(O)CC | 12.4% (inactive)
CCCCCCCCOC(=O)CCCCCCCCC(=O)OCCCCCCCC | 6.02% (inactive)
COC(=O)c1ccc(OC)cc1 | 0.622% (inactive)
C1CCOC1 | 0.369% (inactive)
Cc1c(C(=O)NCCO)[n+](=O)c2ccccc2n1[O-] | 0.805% (inactive)
CCN(CC)CC1CCCCN1CC(=O)N1c2ccccc2C(=O)Nc2cccnc21 (centres undefined) | 0.471% (inactive)
Cc1ccc([N+](=O)[O-])cc1Cl | 0.878% (inactive)
C=CCc1cc(OC)c(O)c(C(=O)NCCO)c1 | 15.9% (inactive)
CCCCNc1cc(C(=O)O)cc(S(N)(=O)=O)c1Oc1ccccc1 | 0.323% (inactive)
CCCCCCC | -15.1% (inactive)
CC(C)O | -1.12% (inactive)
O=C(O)c1cccc(Cl)c1Cl | -7.63% (inactive)
O=C(CCCl)NCc1ccccc1 | -3.01% (inactive)
CCCCCCCOC(=O)CCC | 4.56% (inactive)
O=[N+]([O-])c1nccn1CO[C@@H](CO)[C@H](O)CO | -3.33% (inactive)
Nc1ccc2ccccc2c1S(=O)(=O)O | -4.03% (inactive)
O=Cc1ccc(F)c(Br)c1 | 3.83% (inactive)
CCCCCOc1ccc(C2SC(=O)NC2=O)cc1OCC (centres undefined) | -9.78% (inactive)
CCN(CC)C(=O)N(CC)CC | 4.58% (inactive)
C=CC(C)(O)CC/C=C(\C)CCC=C(C)C (centres undefined) | -1.81% (inactive)
FC(F)(F)C(Cl)(Cl)Cl | 6.41% (inactive)
CCOC(=O)C(Br)c1ccccc1 (centres undefined) | 15.2% (inactive)
COC(=O)N[C@H](C(=O)N[C@@H](Cc1ccccc1)[C@@H](O)CN(Cc1ccc(-c2ccccn2)cc1)NC(=O)[C@@H](NC(=O)OC)C(C)(C)C)C(C)(C)C | -6.22% (inactive)

====

# measured-on: Peroxisome proliferator-activated receptor gamma (Homo sapiens) (UniProt P37231)
# Sequence (P37231 whole entry, looked up): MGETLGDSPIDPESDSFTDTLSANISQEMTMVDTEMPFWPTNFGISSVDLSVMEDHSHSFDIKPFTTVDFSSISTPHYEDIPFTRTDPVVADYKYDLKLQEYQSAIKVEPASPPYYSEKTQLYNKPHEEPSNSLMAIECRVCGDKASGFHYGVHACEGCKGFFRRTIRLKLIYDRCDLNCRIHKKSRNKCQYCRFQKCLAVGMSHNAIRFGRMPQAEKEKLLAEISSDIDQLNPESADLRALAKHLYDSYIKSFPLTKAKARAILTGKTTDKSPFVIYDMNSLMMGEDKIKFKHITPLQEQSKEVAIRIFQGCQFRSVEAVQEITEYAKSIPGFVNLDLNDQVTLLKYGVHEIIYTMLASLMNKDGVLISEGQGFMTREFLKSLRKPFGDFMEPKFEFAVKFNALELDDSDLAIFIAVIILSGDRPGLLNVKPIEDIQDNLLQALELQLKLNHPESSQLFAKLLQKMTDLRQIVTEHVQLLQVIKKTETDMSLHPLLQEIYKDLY
# assay-text: qHTS assay to identify small molecule agonists of the peroxisome proliferator-activated receptor gamma (PPARg) signaling pathway (AID 743094); note: % is set by controls: 0 for no effect and ±100 for the full control effect
# measurement-conditions: HEK293H PPARg-UAS-bla, beta-lactamase FRET ratio, 17 h; series mostly up to 57 µM
Records with an inconclusive call do not appear. Active and inactive are the calls of the source. Calls follow the shape of the dose curve; as a rule, active = well fitted activation curve with a large enough effect in the signal ratio in the repeat runs (not every such curve was filed as active); inconclusive = weak or mixed curves, or effect the other way; inactive = no such curve, though single readings can be large or run the other way; the % refers to the signal ratio.

molecule | measured-on | outcome
CCCC1CCC(=O)O1 (stereo unspecified) | Peroxisome proliferator-activated receptor gamma (Homo sapiens) (UniProt P37231) | inactive
CCCCCCCOC(=O)CCC | Peroxisome proliferator-activated receptor gamma (Homo sapiens) (UniProt P37231) | inactive
C[C@]12C(=O)OC(=O)[C@H]1[C@H]1C=C[C@@H]2C1 | Peroxisome proliferator-activated receptor gamma (Homo sapiens) (UniProt P37231) | inactive
OCCN(CCO)CCN(CCO)CCO | Peroxisome proliferator-activated receptor gamma (Homo sapiens) (UniProt P37231) | inactive
CC1=CC(=O)CC(C)(C)C1=O | Peroxisome proliferator-activated receptor gamma (Homo sapiens) (UniProt P37231) | inactive
NCCC(O)(P(=O)(O)O)P(=O)(O)O | Peroxisome proliferator-activated receptor gamma (Homo sapiens) (UniProt P37231) | inactive
CC(C)Nc1nc(N)nc(Cl)n1 | Peroxisome proliferator-activated receptor gamma (Homo sapiens) (UniProt P37231) | inactive
Cc1ccc([N+](=O)[O-])cc1Cl | Peroxisome proliferator-activated receptor gamma (Homo sapiens) (UniProt P37231) | inactive
CCCCCCCCc1ccc(S(=O)(=O)O)cc1 | Peroxisome proliferator-activated receptor gamma (Homo sapiens) (UniProt P37231) | inactive
Cc1c(-c2ccccc2)oc2c(C(=O)OCCN3CCCCC3)cccc2c1=O | Peroxisome proliferator-activated receptor gamma (Homo sapiens) (UniProt P37231) | inactive
CCN1CC(CCN2CCOCC2)C(c2ccccc2)(c2ccccc2)C1=O (stereo unspecified) | Peroxisome proliferator-activated receptor gamma (Homo sapiens) (UniProt P37231) | inactive
CCOC(=O)C1CC(=O)C(=C(O)C2CC2)C(=O)C1 (stereo unspecified) | Peroxisome proliferator-activated receptor gamma (Homo sapiens) (UniProt P37231) | inactive
CC(C)c1ccccc1 | Peroxisome proliferator-activated receptor gamma (Homo sapiens) (UniProt P37231) | inactive
CCN(CC)CCOc1ccc(Cc2ccccc2)cc1 | Peroxisome proliferator-activated receptor gamma (Homo sapiens) (UniProt P37231) | inactive
Cc1ccc([N+](=O)[O-])c(N)c1 | Peroxisome proliferator-activated receptor gamma (Homo sapiens) (UniProt P37231) | inactive
CCOc1ccccc1N | Peroxisome proliferator-activated receptor gamma (Homo sapiens) (UniProt P37231) | inactive
O=C1CCCc2ccccc21 | Peroxisome proliferator-activated receptor gamma (Homo sapiens) (UniProt P37231) | inactive
CC(=O)N[C@@H](CC(C)C)C(=O)O | Peroxisome proliferator-activated receptor gamma (Homo sapiens) (UniProt P37231) | inactive
CC(=O)Nc1ccc(C)c(Cl)c1 | Peroxisome proliferator-activated receptor gamma (Homo sapiens) (UniProt P37231) | inactive
C=Cc1ccccc1 | Peroxisome proliferator-activated receptor gamma (Homo sapiens) (UniProt P37231) | inactive
OCCN(CCO)c1ccccc1 | Peroxisome proliferator-activated receptor gamma (Homo sapiens) (UniProt P37231) | inactive
O=C(C(Cl)Cl)N1CCOC12CCCCC2 | Peroxisome proliferator-activated receptor gamma (Homo sapiens) (UniProt P37231) | inactive
CCN(CC)C(=O)N(CC)CC | Peroxisome proliferator-activated receptor gamma (Homo sapiens) (UniProt P37231) | inactive
O=C(Cl)c1cccc([N+](=O)[O-])c1 | Peroxisome proliferator-activated receptor gamma (Homo sapiens) (UniProt P37231) | inactive
CC(C)C(=O)OC/C=C/c1ccccc1 | Peroxisome proliferator-activated receptor gamma (Homo sapiens) (UniProt P37231) | inactive
C[C@@H](N)C(=O)O | Peroxisome proliferator-activated receptor gamma (Homo sapiens) (UniProt P37231) | inactive
N#Cc1ccc(C(c2ccc(C#N)cc2)n2cncn2)cc1 | Peroxisome proliferator-activated receptor gamma (Homo sapiens) (UniProt P37231) | inactive
CCCOCCC | Peroxisome proliferator-activated receptor gamma (Homo sapiens) (UniProt P37231) | inactive
CC(C)C(=O)OCC(C)(C)C(O)C(C)C (stereo unspecified) | Peroxisome proliferator-activated receptor gamma (Homo sapiens) (UniProt P37231) | inactive
CCc1nnc(NS(=O)(=O)c2ccc(N)cc2)s1 | Peroxisome proliferator-activated receptor gamma (Homo sapiens) (UniProt P37231) | inactive
O=C1CCC(C2CCCCC2)CC1 | Peroxisome proliferator-activated receptor gamma (Homo sapiens) (UniProt P37231) | inactive
